- experimental_target: α-glucosidase (Saccharomyces cerevisiae, UniProt P53341)
- Construct: purchased Sigma-Aldrich, Munich, Germany
- Sequence (P53341 whole entry): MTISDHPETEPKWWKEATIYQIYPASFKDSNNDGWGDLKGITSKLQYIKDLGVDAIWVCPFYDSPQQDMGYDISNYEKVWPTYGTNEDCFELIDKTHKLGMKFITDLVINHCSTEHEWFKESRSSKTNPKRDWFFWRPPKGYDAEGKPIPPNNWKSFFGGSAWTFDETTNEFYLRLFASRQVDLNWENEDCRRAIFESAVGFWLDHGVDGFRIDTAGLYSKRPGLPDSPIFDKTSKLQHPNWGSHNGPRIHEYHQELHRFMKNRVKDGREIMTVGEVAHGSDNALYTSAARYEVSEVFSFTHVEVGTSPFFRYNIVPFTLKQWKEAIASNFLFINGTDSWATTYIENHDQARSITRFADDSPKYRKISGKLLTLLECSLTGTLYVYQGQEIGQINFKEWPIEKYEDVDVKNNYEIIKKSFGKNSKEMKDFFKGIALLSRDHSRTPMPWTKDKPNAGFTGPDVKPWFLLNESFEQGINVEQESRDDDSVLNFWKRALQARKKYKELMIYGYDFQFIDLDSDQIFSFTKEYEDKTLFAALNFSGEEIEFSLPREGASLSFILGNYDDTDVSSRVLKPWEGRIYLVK
- protocol_text: biochemical
- Type: biochemical
- details: read-out: Inhibitions (%)
Assign Criterion met whenever inhibition at 200 µM does not fall below 60%; assign Criterion not met whenever it does.

Inquiry: Could you please find out whether O=C(C1=C(O)c2ccccc2S(=O)(=O)N1)c1ccc(Br)cc1 [Compound 9b] has inhibition at 200 µM that meets 60% or exceeds it?
Reply text: Criterion not met

Inquiry: Is reported inhibition at 200 µM greater than or equal to 60% here: COc1ccc(NC(=O)CN2C(C(=O)c3ccccc3)=C(O)c3ccccc3S2(=O)=O)cc1 [Compound 11m]
Reply text: Criterion met

Inquiry: Quick check: does O=C(CN1C(C(=O)c2ccccc2)=C(O)c2ccccc2S1(=O)=O)Nc1ccc([N+](=O)[O-])cc1 [Compound 11i] have inhibition at 200 µM greater than or equal to 60%?
Reply text: Criterion met

Inquiry: Dear colleague, could you confirm whether Cc1ccccc1NC(=O)CN1C(C(=O)c2ccc(Br)cc2)=C(O)c2ccccc2S1(=O)=O [Compound 12d] has inhibition at 200 µM at or above 60%?
Reply text: Criterion met

Inquiry: Reported inhibition at 200 µM at or above 60%? O=C(CN1C(C(=O)c2ccccc2)=C(O)c2ccccc2S1(=O)=O)Nc1ccccc1[N+](=O)[O-] [Compound 11g]
Reply text: Criterion not met

Inquiry: Please tell me: is the molecule Cc1ccccc1NC(=O)CN1C(C(=O)c2ccccc2)=C(O)c2ccccc2S1(=O)=O [Compound 11d] at or over 60% in terms of inhibition at 200 µM?
Reply text: Criterion not met

Inquiry: Hello, I need to know if Cc1cccc(NC(=O)CN2C(C(=O)c3ccc(Br)cc3)=C(O)c3ccccc3S2(=O)=O)c1 [Compound 12e] has measured inhibition at 200 µM not below 60%. Thanks!
Reply text: Criterion met

Inquiry: For this molecule, is measured inhibition at 200 µM 60% or higher? O=C(CN1C(C(=O)c2ccccc2)=C(O)c2ccccc2S1(=O)=O)Nc1cccc(Cl)c1 [Compound 11b]
Reply text: Criterion not met

Reference source: paper PMC8161055
